These entries and their values trace back to ChEMBL document CHEMBL3259808.

system: Trypanosoma cruzi; test: Antitrypanosomal activity against Trypanosoma cruzi Tulahuen 2 epimastigotes assessed as growth inhibition after 5 days; type: functional, organism-based; conditions: Trypanosoma cruzi, Tulahuen 2, 120 h
Lab note: compare IC50 with 5 µM, writing Yes if less and No if equal or more.

>  <MOL SMILES>
C=CCn1c(-c2ccccc2)cs/c1=N\N=C\c1ccc([N+](=O)[O-])s1

>  <LABEL CLASS>
No

$$$$
>  <MOL SMILES>
S=C(N/N=C/C=C/c1ccco1)Nc1ccccc1

>  <LABEL CLASS>
No

$$$$
>  <MOL SMILES>
C=CCNC(=S)N/N=C/c1ccc(O)cc1

>  <LABEL CLASS>
No

$$$$
>  <MOL SMILES>
O=C(Cn1ccnc1[N+](=O)[O-])NCc1ccccc1

>  <LABEL CLASS>
No

$$$$
>  <MOL SMILES>
C=CCn1c(-c2ccc(OC)cc2)cs\c1=N/N=C/C=C/c1cccs1

>  <LABEL CLASS>
No

$$$$

Identify whether the molecule C=CCN1C(=O)CS/C1=N\N=C\c1cccs1 records IC50 below 5 µM.
No

Dear reviewer, please state whether O=[N+]([O-])c1ccc(/C=N/N=c2\scc(-c3ccccc3)n2-c2ccccc2)s1 has IC50 strictly beneath 5 µM.
No

Hi there! Is IC50 for C=CCn1c(-c2ccc(OC)cc2)cs/c1=N/N=C/c1ccc([N+](=O)[O-])s1 below 5 µM, do you know?
No

For C=CCN1C(=O)CS/C1=N/N=C\c1ccc(Cl)cc1 , is the recorded IC50 below the cut-off of 5 µM?
No

Bench note: check whether Br.C=CCn1c(-c2ccc(Br)cc2)cs\c1=N/N=C/C=C/c1ccco1 shows IC50 below 5 µM
Yes
